compounds and their reported Ratio
Tested on: Pseudomonas aeruginosa
procedureSummary: Ratio of MIC for Pseudomonas aeruginosa MR08 to MIC for Pseudomonas aeruginosa PAO1
Format: functional

givenSmiles: C[C@@H](O)[C@H]1C(=O)N2C(C(=O)O)=C(S[C@@H]3CN[C@H](C(=O)N(C)C)C3)[C@H](C)[C@H]12
Ratio: 8

givenSmiles: CC(C)(O/N=C(\C(=O)N[C@@H]1C(=O)N2C(C(=O)[O-])=C(C[n+]3ccccc3)CS[C@H]12)c1csc(N)n1)C(=O)O
Ratio: 1

givenSmiles: NCC[C@H](O)C(=O)N[C@@H]1C[C@H](N)[C@@H](O[C@H]2O[C@H](CN)[C@@H](O)[C@H](O)[C@H]2O)[C@H](O)[C@H]1O[C@H]1O[C@H](CO)[C@@H](O)[C@H](N)[C@H]1O
Ratio: 1

givenSmiles: C[C@@H](O)[C@H]1C(=O)N2C(C(=O)O)=C(S[C@H]3C[C@@H](C(=O)N4CC[C@H](NC(=O)CNC(=N)N)C4)N(C)C3)[C@H](C)[C@H]12
Ratio: 4

---

subjectOfTest: MecA (Staphylococcus aureus, UniProt Q7DHH4)
Sequence (Q7DHH4 whole entry): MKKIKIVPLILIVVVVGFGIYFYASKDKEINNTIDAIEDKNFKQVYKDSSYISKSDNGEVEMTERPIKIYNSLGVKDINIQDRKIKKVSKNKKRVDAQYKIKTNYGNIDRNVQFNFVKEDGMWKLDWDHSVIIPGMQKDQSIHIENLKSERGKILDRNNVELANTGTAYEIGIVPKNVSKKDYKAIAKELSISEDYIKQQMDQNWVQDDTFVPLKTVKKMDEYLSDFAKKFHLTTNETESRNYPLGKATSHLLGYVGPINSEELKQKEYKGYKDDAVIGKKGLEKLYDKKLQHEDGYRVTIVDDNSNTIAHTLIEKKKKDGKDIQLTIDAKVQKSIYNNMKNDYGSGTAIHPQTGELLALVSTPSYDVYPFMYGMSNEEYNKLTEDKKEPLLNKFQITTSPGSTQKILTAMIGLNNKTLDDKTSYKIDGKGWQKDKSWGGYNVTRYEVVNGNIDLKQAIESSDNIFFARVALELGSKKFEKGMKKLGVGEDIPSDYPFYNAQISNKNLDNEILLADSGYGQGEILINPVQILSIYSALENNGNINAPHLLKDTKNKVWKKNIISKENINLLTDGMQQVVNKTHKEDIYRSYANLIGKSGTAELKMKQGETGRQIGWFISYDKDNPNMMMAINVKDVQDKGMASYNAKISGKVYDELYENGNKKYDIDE
procedureSummary: Binding affinity to PBP2a in methicillin-resistant Staphylococcus aureus 12386-1 by [14C]benzylpenicillin labelled competitive assay

compound: C[C@@H](O)[C@H]1C(=O)N2C(C(=O)O)=C(S[C@@H]3CN[C@H](C(=O)N(C)C)C3)[C@H](C)[C@H]12
endpointUnit: µM
IC50: 138
--
compound: C[C@@H](O)[C@H]1C(=O)N2C(C(=O)O)=C(S[C@H]3C[C@@H](C(=O)N4CC[C@H](NC(=O)CNC(=N)N)C4)N(C)C3)[C@H](C)[C@H]12
endpointUnit: µM
IC50: 5.39
--
compound: C[C@@H](O)[C@H]1C(=O)N2C(C(=O)O)=C(SCCNC=N)C[C@H]12 [IMIPENEM ANHYDROUS]
endpointUnit: µM
IC50: 254
